Let's look at some compounds and their measured pEC50.
- Test system: Z-138 cells
- procedure summary: Z-138 Proliferation Assay (Cell Titer Glo, 5 days)
- Assay type: cell-based
- measurement parameters: Homo sapiens, Table D-2
pEC50: −log10 of the molar value.

Worked examples follow.
OC(COc1cccc(-c2ccccc2)c1)CN1CCc2ccccc2C1 (stereo not drawn) : < 4.70
OC(COC1CCNCC1)CN1CCc2ccccc2C1 (stereo not drawn) : < 4.40
OC(CNc1cc(-c2ncc3ccn(C4CCNCC4)c3n2)ccn1)CN1CCc2ccccc2C1 (stereo not drawn) : 6.00 to 7.00
O=C(c1cccc(-c2cccc(OCC(O)CN3CCc4ccccc4C3)c2)c1)N1CCOCC1 (stereo not drawn) : < 4.70
Cn1cnc2ccc(-c3cccc(OC[C@@H](O)CN4CCc5ccccc5C4)c3)cc21 : 5.00 to 6.00

Q: Note pEC50 for the compound shown: O=C(Nc1cccc(OCC(O)CN2CCc3ccccc3C2)c1)c1cncnc1 (stereo not drawn)
A: < 4.70

* * *

- measurement target: PRMT5/MEP50 (Homo sapiens)
- Construct: Expressed full-length human Flag-PRMT5/6His-MeP50 protein complex was purified; made in house; host or cells: Spodoptera frugiperda (SF9) insect cells, baculovirus (pDEST8)
- Sequence (O14744 with tags, fused parts or gaps): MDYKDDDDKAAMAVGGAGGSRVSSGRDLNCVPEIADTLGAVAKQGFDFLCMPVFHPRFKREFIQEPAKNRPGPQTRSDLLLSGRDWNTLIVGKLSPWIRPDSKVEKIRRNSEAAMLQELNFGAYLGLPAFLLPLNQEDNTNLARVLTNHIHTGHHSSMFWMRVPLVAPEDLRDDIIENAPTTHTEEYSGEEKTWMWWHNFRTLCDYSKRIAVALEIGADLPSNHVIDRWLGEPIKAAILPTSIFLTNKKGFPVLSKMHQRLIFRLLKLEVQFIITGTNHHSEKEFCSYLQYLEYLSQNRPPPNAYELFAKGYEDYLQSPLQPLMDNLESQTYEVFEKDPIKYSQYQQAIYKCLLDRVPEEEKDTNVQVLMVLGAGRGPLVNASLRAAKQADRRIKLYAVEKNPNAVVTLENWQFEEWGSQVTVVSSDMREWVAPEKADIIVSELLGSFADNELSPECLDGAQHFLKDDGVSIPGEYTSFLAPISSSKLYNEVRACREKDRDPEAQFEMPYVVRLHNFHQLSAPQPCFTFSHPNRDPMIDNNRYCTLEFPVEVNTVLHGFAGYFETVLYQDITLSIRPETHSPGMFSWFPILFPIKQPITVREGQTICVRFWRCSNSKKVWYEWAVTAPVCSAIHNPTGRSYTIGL
- Sequence (Q9BQA1 with tags, fused parts or gaps partner limits assumed): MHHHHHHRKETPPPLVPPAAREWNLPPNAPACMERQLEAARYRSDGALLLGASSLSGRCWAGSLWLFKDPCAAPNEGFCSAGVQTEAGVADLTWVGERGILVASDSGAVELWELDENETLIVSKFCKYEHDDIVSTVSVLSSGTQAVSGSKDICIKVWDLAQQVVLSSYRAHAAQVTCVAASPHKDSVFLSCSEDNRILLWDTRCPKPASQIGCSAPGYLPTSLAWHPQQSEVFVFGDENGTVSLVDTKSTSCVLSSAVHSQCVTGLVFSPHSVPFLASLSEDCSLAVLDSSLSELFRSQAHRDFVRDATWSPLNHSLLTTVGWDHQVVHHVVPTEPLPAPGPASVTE
- procedure summary: PRMT5 Biochemical Assay (PRMT5/MEP50 enzyme assay on peptide substrate, 3H-SAM Flashplate)
- measurement parameters: Table D-2; read-out: Biochemical IC50
observable: IC50

Some entries whose results are on file:
OC(COCC1CCCO1)CN1CCc2ccccc2C1 (stereo not drawn) [Compound D305] : 10000 to 40000 nM
CC(C)n1ccc(-c2ccc(OCC(O)CN3CCc4ccccc4C3)cc2)n1 (stereo not drawn) [Compound D27] : 1000 to 10000 nM
O=C1NCc2ccc(-c3cccc(OCC(O)CN4CCc5ccccc5C4)c3)cc21 (stereo not drawn) [Compound D148] : 101 to 1000 nM
Cn1cnc2ccc(-c3cc(NCC(O)CN4CCc5ccccc5C4)ncn3)cc21 (stereo not drawn) [Compound D207] : 101 to 1000 nM
OC(COc1cccc(-c2ccc(F)cc2)c1)CN1CCc2ccccc2C1 (stereo not drawn) [Compound D77] : 1000 to 10000 nM
O=C(Nc1cc[nH]n1)c1cccc(OCC(O)CN2CCc3ccccc3C2)c1 (stereo not drawn) [Compound D274] : 1000 to 10000 nM
O=C(Nc1cccc(OCC(O)CN2CCc3ccccc3C2)c1)c1cnco1 (stereo not drawn) [Compound D158] : 1000 to 10000 nM
O=C(Cn1cnc2ccc(-c3cccc(OCC(O)CN4CCc5ccccc5C4)c3)cc21)N1CCCC1 (stereo not drawn) [Compound D263] : 101 to 1000 nM
Cc1ccc2c(c1)CN(CC(O)COc1cccc(-c3ccc4ncn(C)c4c3)c1)CC2 (stereo not drawn) [Compound D212] : 1000 to 10000 nM
O=C(c1cncc(-c2cccc(OCC(O)CN3CCc4ccccc4C3)c2)c1)N1CCCC1 (stereo not drawn) [Compound D181] : 1000 to 10000 nM

Q: Please list IC50 recorded for the molecule OC(COCc1ccccc1)CN1CCc2ccccc2C1 (stereo not drawn) [Compound D308]
A: 10000 to 40000 nM

Q: Give recorded IC50. CN(Cc1ccc(OCC(O)CN2CCc3ccccc3C2)cc1)C1CCCC1 (stereo not drawn) [Compound D24]
A: 1000 to 10000 nM

Q: # return recorded IC50 for input O=C(Cn1ccc2cnc(-c3cccc(OCC(O)CN4CCc5ccccc5C4)c3)nc21)N1CCOCC1 (stereo not drawn) [Compound D222]
A: 101 to 1000 nM
